Where do the numbers come from? From paper PMC6149722.

Molecular target: hAChE (Homo sapiens, UniProt P22303)
Sequence (P22303 32-574): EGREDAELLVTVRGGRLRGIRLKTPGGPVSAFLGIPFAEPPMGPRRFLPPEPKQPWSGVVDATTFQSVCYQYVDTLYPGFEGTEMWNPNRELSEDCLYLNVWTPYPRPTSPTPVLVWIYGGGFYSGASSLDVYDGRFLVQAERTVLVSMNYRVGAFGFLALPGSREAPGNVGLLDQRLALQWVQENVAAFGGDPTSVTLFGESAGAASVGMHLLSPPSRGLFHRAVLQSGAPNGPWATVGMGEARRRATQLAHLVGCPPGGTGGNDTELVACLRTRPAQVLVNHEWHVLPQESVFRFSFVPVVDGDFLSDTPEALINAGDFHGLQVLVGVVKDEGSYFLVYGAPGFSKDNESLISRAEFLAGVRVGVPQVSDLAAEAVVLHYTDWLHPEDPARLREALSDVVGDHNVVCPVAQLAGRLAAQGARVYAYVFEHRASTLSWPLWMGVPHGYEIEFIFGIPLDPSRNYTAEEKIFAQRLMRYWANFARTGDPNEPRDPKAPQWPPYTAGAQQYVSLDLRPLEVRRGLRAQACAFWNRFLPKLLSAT
Test: biochemical
Type: binding
Measured Quantity: Kd (µM)
Write the answer as a number in µM, unit excluded.

Item under review: Cc1ccc2c(c1)sc(-c1ccc(N(C)C)cc1)[n+]2C [Thioflavin-T, ThT chloride] . Reported Kd? 17.7
